tested on: Leishmania infantum; test: microbe, parasite or virus in culture; format: functional, organism-based; settings: MHOM/MA/67/ITMAP-263, 48 h
reported-property: IC50

* O=[N+]([O-])c1cccc2nc(O)ccc12 | > 100 µM
* COc1ccc2ccc(=O)[nH]c2c1[N+](=O)[O-] | > 100 µM
* O=[N+]([O-])c1ccccc1 | > 100 µM
* NCCOCCOCCNCc1cc(=O)[nH]c2c([N+](=O)[O-])cccc12 | > 100 µM
* Nc1cccc2cc(Br)c(=O)[nH]c12 | > 50 µM
* Oc1ccc2ccccc2n1 | > 100 µM
* COc1cc([N+](=O)[O-])c2[nH]c(=O)ccc2c1 | > 100 µM
* COc1nc2c([N+](=O)[O-])cccc2cc1Br | > 6.2 µM
* CC(=O)Nc1ccc2cccnc2c1[N+](=O)[O-] | > 100 µM
* O=[N+]([O-])c1ccc2nc(O)ccc2c1 | > 100 µM
* CC(C)(C)OC(=O)NCCOCCOCCNCc1cc(=O)[nH]c2c([N+](=O)[O-])cccc12 | > 100 µM
* O=[N+]([O-])c1cccc2cccnc12 | > 100 µM
* Cc1ccc2ccc(=O)[nH]c2c1[N+](=O)[O-] | > 100 µM
